# CDK9/K Inhibition at 10µM (%) per record follows
# measured_on: CDK9/Cyclin K (Homo sapiens, UniProt P50750)
# Sequence (P50750 whole entry): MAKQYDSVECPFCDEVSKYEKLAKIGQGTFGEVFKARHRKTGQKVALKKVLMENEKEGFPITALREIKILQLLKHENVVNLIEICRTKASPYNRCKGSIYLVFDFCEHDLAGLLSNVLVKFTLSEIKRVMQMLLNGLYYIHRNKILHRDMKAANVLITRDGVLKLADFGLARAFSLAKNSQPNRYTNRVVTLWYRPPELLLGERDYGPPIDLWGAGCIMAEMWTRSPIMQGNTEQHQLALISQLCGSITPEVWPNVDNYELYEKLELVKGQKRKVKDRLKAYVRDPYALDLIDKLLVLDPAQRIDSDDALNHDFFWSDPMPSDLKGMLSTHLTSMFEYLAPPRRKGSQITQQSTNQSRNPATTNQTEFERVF
# Sequence (O75909 whole entry partner): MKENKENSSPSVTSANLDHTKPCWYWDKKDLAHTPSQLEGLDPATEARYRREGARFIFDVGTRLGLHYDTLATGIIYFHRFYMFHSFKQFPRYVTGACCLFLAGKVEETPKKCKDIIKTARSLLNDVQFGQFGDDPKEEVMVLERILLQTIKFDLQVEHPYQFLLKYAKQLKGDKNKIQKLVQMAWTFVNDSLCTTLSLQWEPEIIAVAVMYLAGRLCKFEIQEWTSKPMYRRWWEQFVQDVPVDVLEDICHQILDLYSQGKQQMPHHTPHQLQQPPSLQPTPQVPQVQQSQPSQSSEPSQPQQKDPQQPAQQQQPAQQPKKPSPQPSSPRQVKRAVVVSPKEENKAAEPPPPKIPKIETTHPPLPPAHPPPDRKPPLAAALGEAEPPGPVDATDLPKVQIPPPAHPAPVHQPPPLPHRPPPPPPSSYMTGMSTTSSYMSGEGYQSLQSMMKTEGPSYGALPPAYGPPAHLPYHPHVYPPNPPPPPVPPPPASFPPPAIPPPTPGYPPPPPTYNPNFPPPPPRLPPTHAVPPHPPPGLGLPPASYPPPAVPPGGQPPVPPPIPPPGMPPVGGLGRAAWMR
# test_description: NanoBRET live-cell target engagement, NanoLuc-CDK9/Cyclin K in HEK-293
# Format: binding
# condition_set: 10µM; independent experiment 1
Write the value in % as a bare number.

Cc1c(Br)c(Br)c2c3c1nc(N1CCNCC1)n3CCC2.Cl [SEL 120-34A]
54.9
O=C1NCCc2[nH]c(-c3ccncc3)cc21
96.2
CN(C)C/C=C/C(=O)Nc1ccc(C(=O)Nc2cccc(Nc3ncc(Cl)c(-c4c[nH]c5ccccc45)n3)c2)cc1
44.1

Now look at this entry.
Asked: # return recorded CDK9/K Inhibition at 10µM (%) for entry O=C1NC(=NCc2cccs2)S/C1=C\c1ccc2ncccc2c1
Given back: 10.0

----------
# measured_on: CDK11B/Cyclin L2 (Homo sapiens)
# Sequence (P21127 1-782 isoform P21127-2): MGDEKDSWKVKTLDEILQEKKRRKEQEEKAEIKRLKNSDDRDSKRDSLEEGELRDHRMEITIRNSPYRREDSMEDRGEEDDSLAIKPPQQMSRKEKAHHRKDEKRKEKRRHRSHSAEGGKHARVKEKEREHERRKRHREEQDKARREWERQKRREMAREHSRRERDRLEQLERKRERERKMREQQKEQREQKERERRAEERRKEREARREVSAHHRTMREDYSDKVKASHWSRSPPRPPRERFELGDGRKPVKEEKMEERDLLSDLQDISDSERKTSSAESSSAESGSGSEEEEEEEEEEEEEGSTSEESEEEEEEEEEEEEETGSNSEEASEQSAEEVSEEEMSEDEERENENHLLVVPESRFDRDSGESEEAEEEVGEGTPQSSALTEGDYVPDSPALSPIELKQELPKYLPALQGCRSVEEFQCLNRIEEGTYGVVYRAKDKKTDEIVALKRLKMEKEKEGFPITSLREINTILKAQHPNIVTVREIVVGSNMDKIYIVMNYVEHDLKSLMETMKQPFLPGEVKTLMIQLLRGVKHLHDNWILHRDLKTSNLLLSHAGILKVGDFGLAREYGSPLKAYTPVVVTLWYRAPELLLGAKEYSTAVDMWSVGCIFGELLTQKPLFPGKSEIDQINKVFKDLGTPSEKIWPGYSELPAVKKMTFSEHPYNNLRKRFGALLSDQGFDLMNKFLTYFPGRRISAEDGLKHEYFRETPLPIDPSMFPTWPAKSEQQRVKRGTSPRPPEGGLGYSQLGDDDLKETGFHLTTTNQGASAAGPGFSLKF
# test_description: NanoBRET live-cell target engagement, CDK11B-NanoLuc/Cyclin L2 in HEK-293
# Type: binding
# condition_set: CDK11b/L2; experiment 2
property_label: Inhibition at 10µM (%)
Write the value in % as a bare number.

Asked: # return recorded Inhibition at 10µM (%) for entry CNc1nc(C)c(-c2nc(Nc3cccc(S(N)(=O)=O)c3)ncc2F)s1
Given back: 58.7

Asked: # return recorded Inhibition at 10µM (%) for entry CC(C)c1c2cc(-c3ccnc(N[C@H]4CC[C@H](NC5CCOCC5)CC4)n3)ccc2nn1C
Given back: 93.9

----------
# measured_on: CDK3/Cyclin E1 (Homo sapiens, UniProt Q00526)
# Sequence (Q00526 whole entry): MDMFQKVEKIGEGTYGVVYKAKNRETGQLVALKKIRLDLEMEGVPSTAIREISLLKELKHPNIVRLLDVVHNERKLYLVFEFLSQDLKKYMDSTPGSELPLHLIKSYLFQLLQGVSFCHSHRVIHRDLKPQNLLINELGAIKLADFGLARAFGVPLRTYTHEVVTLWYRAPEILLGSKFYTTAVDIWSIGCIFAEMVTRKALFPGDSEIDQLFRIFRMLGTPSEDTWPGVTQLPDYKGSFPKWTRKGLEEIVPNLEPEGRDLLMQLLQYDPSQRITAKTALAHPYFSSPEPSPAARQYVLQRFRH
# Sequence (P24864 whole entry partner): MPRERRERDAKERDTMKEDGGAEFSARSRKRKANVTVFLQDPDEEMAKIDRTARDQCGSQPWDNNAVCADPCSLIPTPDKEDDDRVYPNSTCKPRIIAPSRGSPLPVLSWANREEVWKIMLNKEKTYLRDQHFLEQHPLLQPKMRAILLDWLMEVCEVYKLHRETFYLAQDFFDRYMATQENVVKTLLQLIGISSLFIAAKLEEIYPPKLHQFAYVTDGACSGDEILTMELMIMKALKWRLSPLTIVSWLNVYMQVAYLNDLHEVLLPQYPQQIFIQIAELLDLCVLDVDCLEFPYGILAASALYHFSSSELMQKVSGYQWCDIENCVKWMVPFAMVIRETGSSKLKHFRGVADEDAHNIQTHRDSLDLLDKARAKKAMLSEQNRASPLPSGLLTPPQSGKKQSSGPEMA
# test_description: NanoBRET live-cell target engagement, CDK3-NanoLuc/Cyclin E1 in HEK-293
# Type: binding
# condition_set: independent experiment 2; read-out: CDK3/E1 IC50
property_label: IC50 (nM)
Write the value in nM as a bare number.

# example entries with known answers
COCCN1CCN(Cc2ccc(-c3n[nH]c4c3C(=O)c3c(NC(=O)NN5CCOCC5)cccc3-4)cc2)CC1 [RGB286638]
10
O=C1NC(=NCc2cccs2)S/C1=C\c1ccc2ncccc2c1 [RO-3306]
280
CN1C/C=C/CCOc2cccc(c2)-c2ccnc(n2)Nc2cccc(c2)C1 [SB1317]
43

Now look at this entry.
Asked: Give CDK3/Cyclin E1 (Homo sapiens, UniProt Q00526) IC50 for the following compound: CC(C)CC(=O)Nc1[nH]nc2c1CN(C(=O)C1CCN(C)CC1)C2(C)C [PHA-793887]
Given back: 394

----------
# measured_on: CDK16/Cyclin Y (Homo sapiens)
# Sequence (Q00536 whole entry): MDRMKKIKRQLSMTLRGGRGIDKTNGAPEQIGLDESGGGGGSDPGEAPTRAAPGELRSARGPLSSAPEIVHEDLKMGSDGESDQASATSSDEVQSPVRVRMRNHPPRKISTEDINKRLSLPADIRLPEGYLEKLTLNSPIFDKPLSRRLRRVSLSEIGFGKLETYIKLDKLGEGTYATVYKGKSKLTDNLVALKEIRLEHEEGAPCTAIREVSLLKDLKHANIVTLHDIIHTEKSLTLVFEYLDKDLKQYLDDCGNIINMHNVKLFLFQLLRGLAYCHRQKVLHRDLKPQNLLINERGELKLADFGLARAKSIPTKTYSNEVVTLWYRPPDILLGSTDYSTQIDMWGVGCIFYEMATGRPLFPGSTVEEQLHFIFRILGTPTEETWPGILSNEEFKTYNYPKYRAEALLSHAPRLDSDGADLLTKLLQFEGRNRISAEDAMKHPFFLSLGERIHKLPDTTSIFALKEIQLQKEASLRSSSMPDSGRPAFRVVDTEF
# Sequence (Q8ND76 whole entry partner): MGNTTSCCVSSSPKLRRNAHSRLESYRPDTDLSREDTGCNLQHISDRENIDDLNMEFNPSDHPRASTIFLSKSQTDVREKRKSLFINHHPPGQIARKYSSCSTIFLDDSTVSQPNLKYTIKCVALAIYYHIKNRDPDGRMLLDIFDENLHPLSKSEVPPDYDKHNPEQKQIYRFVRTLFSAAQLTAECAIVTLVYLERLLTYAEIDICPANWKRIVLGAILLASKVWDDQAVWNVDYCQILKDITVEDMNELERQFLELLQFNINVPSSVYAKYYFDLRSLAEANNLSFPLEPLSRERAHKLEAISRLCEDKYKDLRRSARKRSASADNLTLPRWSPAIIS
# test_description: NanoBRET live-cell target engagement, CDK16-NanoLuc/Cyclin Y in HEK-293
# Format: binding
# condition_set: CDK16/Y; read-out: IC50 (nM) Replicate 1
# IC50 per record follows
Write the value in nM as a bare number.

# example entries with known answers
CCCCOc1c(C(=O)c2c(F)cc(C)cc2F)c[nH]c2nncc1-2
5.7
CNC1CCN(C(=O)c2ccc(Nc3ncc(F)c(-c4cnc(C)n4C(C)C)n3)cc2)C1 (stereo not shown)
8.9

Asked: # return recorded IC50 for entry CC(C)c1cnn2c(NCc3ccccc3)cc(N[C@@H](CO)[C@H](O)CO)nc12
Given back: 495

Asked: # return recorded IC50 for entry C[C@H]1CC[C@H](n2c3cnccc3c3cnc(Nc4ccc5c(n4)CCN(C(=O)CO)C5)nc32)CC1
Given back: 103
